Numbers sourced from patent US20240182536A1.

# TGT: T1, IL-18 receptors on HEK-Blue IL-18 reporter cells (UniProt Q13478 19-541; O95256 20-599, limits assumed)
# T1 sequence (looked up) 1: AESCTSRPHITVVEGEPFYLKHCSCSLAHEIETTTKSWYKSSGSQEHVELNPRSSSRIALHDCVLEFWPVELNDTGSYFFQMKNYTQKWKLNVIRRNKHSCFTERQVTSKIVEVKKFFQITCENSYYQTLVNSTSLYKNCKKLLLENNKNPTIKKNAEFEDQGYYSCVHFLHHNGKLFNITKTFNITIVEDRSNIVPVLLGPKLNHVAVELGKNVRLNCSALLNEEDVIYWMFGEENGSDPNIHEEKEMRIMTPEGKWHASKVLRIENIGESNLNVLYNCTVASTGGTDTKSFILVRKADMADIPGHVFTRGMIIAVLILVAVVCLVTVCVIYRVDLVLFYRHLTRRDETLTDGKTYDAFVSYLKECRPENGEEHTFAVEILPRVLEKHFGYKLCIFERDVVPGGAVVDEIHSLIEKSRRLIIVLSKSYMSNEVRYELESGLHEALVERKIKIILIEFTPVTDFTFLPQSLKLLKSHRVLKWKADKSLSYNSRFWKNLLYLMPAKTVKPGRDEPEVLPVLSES
# T1 sequence (looked up) 2: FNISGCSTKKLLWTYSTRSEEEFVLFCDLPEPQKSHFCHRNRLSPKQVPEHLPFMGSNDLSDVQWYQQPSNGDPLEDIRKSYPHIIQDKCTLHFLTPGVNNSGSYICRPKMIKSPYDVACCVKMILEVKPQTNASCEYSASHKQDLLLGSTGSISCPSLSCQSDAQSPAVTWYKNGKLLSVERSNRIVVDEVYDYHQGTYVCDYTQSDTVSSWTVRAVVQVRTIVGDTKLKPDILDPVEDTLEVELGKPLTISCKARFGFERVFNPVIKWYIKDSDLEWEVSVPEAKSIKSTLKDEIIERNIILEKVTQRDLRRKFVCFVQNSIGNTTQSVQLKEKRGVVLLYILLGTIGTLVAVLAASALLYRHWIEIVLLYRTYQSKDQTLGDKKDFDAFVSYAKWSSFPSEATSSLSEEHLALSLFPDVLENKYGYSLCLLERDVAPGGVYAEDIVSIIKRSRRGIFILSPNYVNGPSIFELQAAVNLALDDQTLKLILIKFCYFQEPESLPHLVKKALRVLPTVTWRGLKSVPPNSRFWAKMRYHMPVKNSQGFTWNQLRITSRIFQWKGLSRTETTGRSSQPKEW
# TEST_METHOD_NOTES: cell-based or functional assay

[
  {
    "BINDER": "IL-18 variant G3L, E6S, D54T, T63S, N91Y, R104Q (ligand) YFLKLSSKLSVIRNLNDQVLFIDQGNRPLFEDMTDSDMRDNAPRTIFIISMYKTSQPRGMAVSISVKSEKISTLSSENKIISFKEMNPPDYIKDTKSDIIFFQQSVPGHDNKMQFESSSYEGYFLASEKERDLFKLILKKEDELGDRSIMFTVQNED",
    "Activity, No BP, DF-2500000": 1.73
  },
  {
    "BINDER": "IL-18 variant G3I, E6Q, N91M, R104Y (ligand) YFIKLQSKLSVIRNLNDQVLFIDQGNRPLFEDMTDSDMRDNAPRTIFIISMYKDSQPRGMAVTISVKSEKISTLSSENKIISFKEMNPPDMIKDTKSDIIFFQYSVPGHDNKMQFESSSYEGYFLASEKERDLFKLILKKEDELGDRSIMFTVQNED",
    "Activity, No BP, DF-2500000": 1.53
  },
  {
    "BINDER": "IL-18 variant G3L, E6Q, T63H, N91M, R104H (ligand) YFLKLQSKLSVIRNLNDQVLFIDQGNRPLFEDMTDSDMRDNAPRTIFIISMYKDSQPRGMAVHISVKSEKISTLSSENKIISFKEMNPPDMIKDTKSDIIFFQHSVPGHDNKMQFESSSYEGYFLASEKERDLFKLILKKEDELGDRSIMFTVQNED",
    "Activity, No BP, DF-2500000": 0.11
  }
]
